# Read-out: Interleukin-8 (IL8), CXCL8 (gene 3576)
# method-notes: BSK_CASM3C_IL8: BioMAP Diversity Plus: CASM3C Assay for Interleukin-8 (IL8) Biomarker Activity (AID 2283042);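 note: IL-8 protein level quantified by ELISA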
# measurement-conditions: primary human coronary artery smooth muscle cells; actives raise or lower the signal
The source made the active and inactive calls. Rule for the calls: active = hit-call score of the fitted dose curve at least 0.9, where 1 is the maximum; inactive = score below 0.9.
Could you please pick one outcome from this set? YES = active, NO = inactive

The examples below pair each entry with its known result.
| molecule | assigned-category |
| --- | --- |
| O=[N+]([O-])c1ccc(Cl)c(Cl)c1 | NO |
| OCC(F)(F)OC(F)(F)C(F)(F)OC(F)(F)CO | NO |
| CCCCN(CCCC)SN(C)C(=O)Oc1cccc2c1OC(C)(C)C2 | NO |
| CC(C)(C)c1ccc(O)cc1 | NO |
| O=C(O)C(F)(F)OC(F)(F)C(F)(F)OC(F)(F)F | NO |
| O=c1ssc(Cl)c1Cl | NO |
| CC(C)Nc1ccc(Nc2ccccc2)cc1 | YES |
| COCCOCCO | NO |

Could you please tell me the result logged for CCOS(=O)(=O)OCC in this assay?
NO

Short answer needed: outcome of this test for CCOP(=S)(OCC)SCSCC ?
NO

Test call, this molecule: Cc1ccc(O)cc1C
NO

Dear all, I need the recorded test outcome for CC(O)C(F)(F)C(F)(F)F (stereo not given) , thank you.
NO

Give the logged outcome of this assay for the following molecule: CCOC(=O)c1ccccc1C(=O)OCC
NO

What call does the record list for O=C(O)C(F)(F)OC(F)(F)C(F)(F)OC(F)(F)C(=O)O ?
NO

Answer briefly: the call reported for CCCCN(CCCC)N=O in this assay.
NO

* * *

# Read-out: Apolipoprotein A-V (APOA5) gene, APOA5 (gene 116519)
# method-notes: LTEA_HepaRG_APOA5: Life Technologies and Expression Analysis (LTEA) Assay for Apolipoprotein A-V (APOA5) gene using HepaRG (AID 2283474)
# measurement-conditions: mRNA level, 48 h; actives raise or lower the signal
Calls of active or inactive are those of the source. Rule for the calls: active = hit-call score of the fitted dose curve at least 0.9, where 1 is the maximum; inactive = score below 0.9.

| given-smiles | outcome |
| --- | --- |
| CC(C)(C)OOC(C)(C)C | inactive |
| COCCOCCO | inactive |
| CCNc1nc(Cl)nc(NC(C)(C)C)n1 | inactive |

* * *

# Read-out: Vascular endothelial growth factor receptor 2 (Homo sapiens) (UniProt P35968)
# method-notes: BSK_4H_VEGFRII: BioMAP Diversity Plus: 4H Assay for Vascular endothelial growth factor receptor 2 (VEGFR2) Biomarker Activity (AID 2283031)
# measurement-conditions: primary human endothelial cells (HUVEC); actives raise or lower the signal
The source made the active and inactive calls. Rule for the calls: active = hit-call score of the fitted dose curve at least 0.9, where 1 is the maximum; inactive = score below 0.9.
Write down the outcome that applies. Available outcomes: class 1 = active, class 0 = inactive

For orientation, consider the following solved cases.
| compound | assigned-category |
| --- | --- |
| COP(=O)(O)OC | class 0 |
| COC(=O)C(F)(F)C(F)(F)OC(F)(C(F)(F)F)C(F)(F)OC(F)=C(F)F (configuration not stated) | class 0 |
| CC(Cl)CN(C)C (configuration not stated) | class 0 |

// outcome(item) with item = CCCCOCCOP(=O)(OCCOCCCC)OCCOCCCC
class 0

So what was the verdict on c1ccc(OP(Oc2ccccc2)Oc2ccccc2)cc1 in this test?
class 0

Could you please tell me the result logged for O=P(OCC(Br)CBr)(OCC(Br)CBr)OCC(Br)CBr (configuration not stated) in this assay?
class 0

# fetch the recorded call for c1cc2c3c(cccc3c1)CC2 here
class 0

Each compound tested received a call. Report the one for N#Cc1c(-c2ccc(Cl)cc2)[nH]c(C(F)(F)F)c1Br .
class 1

Status in this test for FC(F)(F)C(F)(C(F)(F)F)C(F)(F)C(F)(F)CC1CO1 (configuration not stated) ?
class 0

// return assay outcome for C=CC(=O)OCC(F)(F)C(F)F
class 0

In this assay, the call recorded for O=C(O)C(Cl)Cl was what?
class 0

Fill in: this test's call for Nc1ccc2ccccc2c1 is ___
class 0

Could you kindly confirm the outcome this assay logged for ClC(Cl)(Cl)c1ccccc1 ?
class 0

How did this test come out for CCCCC(CC)COC(=O)c1c(Br)c(Br)c(Br)c(Br)c1C(=O)OCC(CC)CCCC (configuration not stated) ?
class 0

Could you check what this test reported for ClC1=C(Cl)C2(Cl)C3C(Cl)C(Cl)CC3C1(Cl)C2(Cl)Cl (configuration not stated) ?
class 1

Assay result, entry CCCCN(CCCC)SN(C)C(=O)Oc1cccc2c1OC(C)(C)C2 — outcome?
class 1

Please let me know the test result on file for CCOP(=S)(NC(C)C)Oc1ccccc1C(=O)OC(C)C (configuration not stated) .
class 0

Provenance of the data: PubChem BioAssay (EPA / NIEHS)
